Recorded values, source the supplement of paper PMC11061612.

- Tested on: COLO-829 (Melanoma)
- method: combination Emax (second highest fraction inhibited in the dose matrix, 72 h); higher = more inhibition; extreme values may be limits of the assay
property.measured: combination Emax
Answer using only a numeral; do not append any unit.

CCN(CCO)CCCOc1ccc2c(Nc3cc(CC(=O)Nc4cccc(F)c4)[nH]n3)ncnc2c1 [AZD2811] + O=C(c1cc(Cc2n[nH]c(=O)c3ccccc23)ccc1F)N1CCN(C(=O)C2CC2)CC1 [Olaparib] (first compound max 1 µM, 7x7, partner max 10 µM) : 0.254
CC(=O)c1c(C)c2cnc(Nc3ccc(N4CCNCC4)cn3)nc2n(C2CCCC2)c1=O [Palbociclib] + Cc1c2c(nn1C)CSCc1cc(n(C)n1)CSc1cc(c3ccccc3c1)OCCCc1c(C(=O)O)n(C)c3c-2c(Cl)ccc13 [AZD5991] (first compound max 10 µM, 7x7, partner max 1 µM) : 0.388

Switching to the query record.
Task: Please give the documented combination Emax of Cc1c2c(nn1C)CSCc1cc(n(C)n1)CSc1cc(c3ccccc3c1)OCCCc1c(C(=O)O)n(C)c3c-2c(Cl)ccc13 [AZD5991] + CC1(C)CCC(CN2CCN(c3ccc(C(=O)NS(=O)(=O)c4ccc(NCC5CCOCC5)c([N+](=O)[O-])c4)c(Oc4cnc5[nH]ccc5c4)c3)CC2)=C(c2ccc(Cl)cc2)C1 [Venetoclax] (first compound max 1 µM, 7x7, partner max 1 µM)
Output: 0.213

* * *

- System: LB771-HNC (Head and Neck Carcinoma)
- method: Bliss excess, mean over the matrix (fraction); higher = more synergy
property.measured: Bliss excess
Answer using only a numeral; do not append any unit.

CC(=O)c1c(C)c2cnc(Nc3ccc(N4CCNCC4)cn3)nc2n(C2CCCC2)c1=O [Palbociclib] + Cn1cnc2c(F)c(Nc3ccc(Br)cc3Cl)c(C(=O)NOCCO)cc21 [Selumetinib] (first compound max 10 µM, 7x7, partner max 10 µM) : -0.0893

Task: Please give the documented Bliss excess of Cc1c2c(nn1C)CSCc1cc(n(C)n1)CSc1cc(c3ccccc3c1)OCCCc1c(C(=O)O)n(C)c3c-2c(Cl)ccc13 [AZD5991] + C[C@@H](Nc1cc(F)cc(F)c1)c1cc(C(=O)N(C)C)cc2c(=O)cc(N3CCOCC3)oc12 [AZD8186] (first compound max 1 µM, 7x7, partner max 3 µM)
Output: -0.0206

Task: Please give the documented Bliss excess of NC1(C(=O)N[C@@H](CCO)c2ccc(Cl)cc2)CCN(c2ncnc3[nH]ccc23)CC1 [Capivasertib] + COc1nnc2ccc(N3CCC(c4ccc(OCCN5CCN(C)C(=O)[C@H]5C)cc4)CC3)nn12 [AZD5153] (first compound max 10 µM, 7x7, partner max 1 µM)
Output: 0.0208

Task: Please give the documented Bliss excess of NC1(C(=O)N[C@@H](CCO)c2ccc(Cl)cc2)CCN(c2ncnc3[nH]ccc23)CC1 [Capivasertib] + CCN(CCO)CCCOc1ccc2c(Nc3cc(CC(=O)Nc4cccc(F)c4)[nH]n3)ncnc2c1 [AZD2811] (first compound max 10 µM, 7x7, partner max 1 µM)
Output: -0.0549

* * *

- Tested on: CTB-1 (B-Cell Non-Hodgkin's Lymphoma)
- method: Bliss excess, mean over the matrix (fraction); higher = more synergy
property.measured: Bliss excess
Answer using only a numeral; do not append any unit.

COc1cccc2c1C(=O)c1c(O)c3c(c(O)c1C2=O)C[C@@](O)(C(=O)CO)C[C@@H]3O[C@H]1C[C@H](N)[C@H](O)[C@H](C)O1 [Doxorubicin] + Cc1cc2ncnn2cc1Nc1ncc2c(n1)n(C1CCOCC1)c(=O)n2C [AZD7648] (first compound max 1 µM, 7x7, partner max 10 µM) : 0.077

Switching to the query record.
Task: Please give the documented Bliss excess of CCN(CCO)CCCOc1ccc2c(Nc3cc(CC(=O)Nc4cccc(F)c4)[nH]n3)ncnc2c1 [AZD2811] + C[C@@H]1COCCN1C2=NC(=NC(=C2)C3(CC3)[S@](=N)(=O)C)C4=C5C=CNC5=NC=C4 [AZD6738] (first compound max 1 µM, 7x7, partner max 10 µM)
Output: -0.0826

* * *

- Tested on: LU-139 (Small Cell Lung Carcinoma)
- method: combination Emax (second highest fraction inhibited in the dose matrix, 72 h); higher = more inhibition; extreme values may be limits of the assay
combination Emax class ranges: one = under 0.2, two = from 0.2 up to 0.7, three = 0.7 and over

NC1(C(=O)N[C@@H](CCO)c2ccc(Cl)cc2)CCN(c2ncnc3[nH]ccc23)CC1 [Capivasertib] + CC(=O)c1c(C)c2cnc(Nc3ccc(N4CCNCC4)cn3)nc2n(C2CCCC2)c1=O [Palbociclib] (first compound max 10 µM, 7x7, partner max 10 µM) : one

Task: Returns: class label. Input: Cc1c2c(nn1C)CSCc1cc(n(C)n1)CSc1cc(c3ccccc3c1)OCCCc1c(C(=O)O)n(C)c3c-2c(Cl)ccc13 [AZD5991] + CN(C)CCCOc1ccc(-c2ccc3ncc4c(c3c2)n(C2CCOCC2)c(=O)n4C)cn1 [AZD0156] (first compound max 1 µM, 7x7, partner max 1 µM)
Output: two

Task: Returns: class label. Input: Cc1c2c(nn1C)CSCc1cc(n(C)n1)CSc1cc(c3ccccc3c1)OCCCc1c(C(=O)O)n(C)c3c-2c(Cl)ccc13 [AZD5991] + Cn1cnc2c(F)c(Nc3ccc(Br)cc3Cl)c(C(=O)NOCCO)cc21 [Selumetinib] (first compound max 1 µM, 7x7, partner max 3 µM)
Output: one

* * *

- Tested on: HO-1-u-1 (Oral Cavity Carcinoma)
- method: combination Emax (second highest fraction inhibited in the dose matrix, 72 h); higher = more inhibition; extreme values may be limits of the assay
Note to self: values exactly at 0.5 are y. So combination Emax at or above 0.5 is y, below is n.

Consider the worked cases shown below.
NC1(C(=O)N[C@@H](CCO)c2ccc(Cl)cc2)CCN(c2ncnc3[nH]ccc23)CC1 [Capivasertib] + CCN(CCO)CCCOc1ccc2c(Nc3cc(CC(=O)Nc4cccc(F)c4)[nH]n3)ncnc2c1 [AZD2811] (first compound max 10 µM, 7x7, partner max 1 µM) : y
COc1cccc(OCCCN)c1-c1cc(Nc2cnc(C#N)cn2)n[nH]1 [Prexasertib] + C[C@@H]1COCCN1C2=NC(=NC(=C2)C3(CC3)[S@](=N)(=O)C)C4=C5C=CNC5=NC=C4 [AZD6738] (first compound max 1 µM, 7x7, partner max 10 µM) : y
C[C@@H](c1ccc2nccn2c1)n1nnc2ncc(-c3cnn(C)c3)nc21 [Savolitinib] + CC1(C)CCC(CN2CCN(c3ccc(C(=O)NS(=O)(=O)c4ccc(NCC5CCOCC5)c([N+](=O)[O-])c4)c(Oc4cnc5[nH]ccc5c4)c3)CC2)=C(c2ccc(Cl)cc2)C1 [Venetoclax] (first compound max 1 µM, 7x7, partner max 1 µM) : n
CN(CCO)CC[C@H](CSc1ccccc1)Nc1ccc(S(=O)(=O)NC(=O)c2ccc(N3CCC([C@@H](O)c4ccccc4-c4ccc(Cl)cc4)CC3)cc2)cc1S(=O)(=O)C(F)(F)F [AZD4320] + Cn1cnc2c(F)c(Nc3ccc(Br)cc3Cl)c(C(=O)NOCCO)cc21 [Selumetinib] (first compound max 1 µM, 7x7, partner max 3 µM) : n
Cc1c2c(nn1C)CSCc1cc(n(C)n1)CSc1cc(c3ccccc3c1)OCCCc1c(C(=O)O)n(C)c3c-2c(Cl)ccc13 [AZD5991] + CC(=O)O[C@H]1C(=O)[C@@]2(C)[C@H]([C@H](OC(=O)c3ccccc3)[C@]3(O)C[C@H](OC(=O)[C@H](O)[C@@H](NC(=O)c4ccccc4)c4ccccc4)C(C)=C1C3(C)C)[C@]1(OC(C)=O)CO[C@@H]1C[C@@H]2O [Paclitaxel] (first compound max 1 µM, 7x7, partner max 3 µM) : y

Task: Form field: combination Emax at least 0.5? Entry: CC1(C)CCC(CN2CCN(c3ccc(C(=O)NS(=O)(=O)c4ccc(NCC5CCOCC5)c([N+](=O)[O-])c4)c(Oc4cnc5[nH]ccc5c4)c3)CC2)=C(c2ccc(Cl)cc2)C1 [Venetoclax] + CCN(CCO)CCCOc1ccc2c(Nc3cc(CC(=O)Nc4cccc(F)c4)[nH]n3)ncnc2c1 [AZD2811] (first compound max 1 µM, 7x7, partner max 1 µM)
Output: n

* * *

- Test system: CAL-51 (Breast Carcinoma)
- method: Bliss excess, mean over the matrix (fraction); higher = more synergy
Recorded Bliss excess by entry
Answer using only a numeral; do not append any unit.

Some solved cases for reference:
CN(CCO)CC[C@H](CSc1ccccc1)Nc1ccc(S(=O)(=O)NC(=O)c2ccc(N3CCC([C@@H](O)c4ccccc4-c4ccc(Cl)cc4)CC3)cc2)cc1S(=O)(=O)C(F)(F)F [AZD4320] + C[C@@H](Nc1cc(F)cc(F)c1)c1cc(C(=O)N(C)C)cc2c(=O)cc(N3CCOCC3)oc12 [AZD8186] (first compound max 1 µM, 7x7, partner max 3 µM) : 0.0283
Cc1c2c(nn1C)CSCc1cc(n(C)n1)CSc1cc(c3ccccc3c1)OCCCc1c(C(=O)O)n(C)c3c-2c(Cl)ccc13 [AZD5991] + C=CCn1c(=O)c2cnc(Nc3ccc(N4CCN(C)CC4)cc3)nc2n1-c1cccc(C(C)(C)O)n1 [AZD1775] (first compound max 1 µM, partner max 1 µM) : 0.045

Switching to the query record.
Task: Please give the documented Bliss excess of Cc1c2c(nn1C)CSCc1cc(n(C)n1)CSc1cc(c3ccccc3c1)OCCCc1c(C(=O)O)n(C)c3c-2c(Cl)ccc13 [AZD5991] + Cc1cc2ncnn2cc1Nc1ncc2c(n1)n(C1CCOCC1)c(=O)n2C [AZD7648] (first compound max 1 µM, 7x7, partner max 10 µM)
Output: -0.0529
